measured on: full length rTrkA and mNGF (Rattus norvegicus)
Construct: co-expressing full length rTrkA and mNGF; expressed in transfected cells; host or cells: Ba/F3 cells
Sequence (P35739 33-799): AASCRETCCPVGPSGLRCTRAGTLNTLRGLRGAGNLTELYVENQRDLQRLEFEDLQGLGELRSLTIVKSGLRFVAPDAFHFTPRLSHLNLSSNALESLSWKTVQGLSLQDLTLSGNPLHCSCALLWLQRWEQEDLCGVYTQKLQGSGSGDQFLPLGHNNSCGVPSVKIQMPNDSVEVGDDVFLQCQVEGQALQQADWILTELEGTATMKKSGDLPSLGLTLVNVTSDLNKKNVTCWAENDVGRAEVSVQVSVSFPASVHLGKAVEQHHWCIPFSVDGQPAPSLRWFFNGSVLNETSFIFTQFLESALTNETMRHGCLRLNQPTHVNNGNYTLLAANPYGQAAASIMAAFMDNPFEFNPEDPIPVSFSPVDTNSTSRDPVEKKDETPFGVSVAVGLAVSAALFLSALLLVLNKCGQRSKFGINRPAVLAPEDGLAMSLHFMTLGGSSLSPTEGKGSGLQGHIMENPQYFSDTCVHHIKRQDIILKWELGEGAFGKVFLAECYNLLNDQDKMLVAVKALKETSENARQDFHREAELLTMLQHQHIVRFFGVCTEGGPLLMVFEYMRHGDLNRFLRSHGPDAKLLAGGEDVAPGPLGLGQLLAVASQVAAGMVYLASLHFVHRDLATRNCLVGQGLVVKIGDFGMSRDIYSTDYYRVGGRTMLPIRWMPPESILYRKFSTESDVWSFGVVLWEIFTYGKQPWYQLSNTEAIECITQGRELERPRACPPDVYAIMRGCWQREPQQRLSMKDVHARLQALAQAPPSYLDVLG
Sequence (P01139 122-241 partner): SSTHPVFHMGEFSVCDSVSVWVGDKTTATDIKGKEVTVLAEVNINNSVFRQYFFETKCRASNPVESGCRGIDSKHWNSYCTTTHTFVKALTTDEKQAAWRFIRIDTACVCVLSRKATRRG
assay summary: Inhibition of proliferation of Ba/F3 cells co-expressing full length rTrkA and mNGF (BaF3/TrkA-NFG)
Type: cell-based
test context: BaF3 TRKA-NGF cells, CTG readout
experimental endpoint: BaF3 TRKA-NGF CTG IC 50 (nM)

- Fc1cccc(C2CCCN2c2ccc3ncc(-c4cccc(-c5cnc(N6CCOCC6)nc5)n4)n3n2)c1 (stereo not shown) [Table 7-Compound 54]: 41

(I) OC1CCN(c2cncc(-c3cnc4ccc(N5CCCC5c5cccc(F)c5)nn34)n2)CC1 (stereo not shown) [Table 7-Compound 121]
(II) COc1ncc(-c2cnc3ccc(N4CCCC4c4cccc(F)c4)nn23)s1 (stereo not shown) [Table 3-Compound 27]
(III) CCN(CC)CCNc1cccc(-c2cnc3ccc(N4CCCC4c4cccc(F)c4)nn23)n1 (stereo not shown) [Table 4-Compound 14]
// query Rank the 3 compounds: largest BaF3 TRKA-NGF CTG IC 50 first, smallest last. Returns: the labels arranged in the requested order.
// result II, III, I
(II: 320 nM, III: 45.2 nM, I: 4.88 nM)

(I) O=C1CCN(c2cccc(-c3cnc4ccc(N5CCC[C@@H]5c5cccc(F)c5)nn34)n2)CC1 [Table 7-Compound 181]
(II) O=C(CO)NC1CN(c2cccc(-c3cnc4ccc(N5CCC[C@@H]5c5cccc(F)c5)nn34)n2)C1 [Table 7-Compound 132]
(III) O=C(O)C1CN(c2cccc(-c3cnc4ccc(N5CCCC5c5cccc(F)c5)nn34)n2)C1 (stereo not shown) [Table 7-Compound 116]
(IV) CC(C)c1noc(C2CCN(c3cccc(-c4cnc5ccc(N6CCOCC6c6cccc(F)c6)nn45)n3)CC2)n1 (stereo not shown) [Table 7-Compound 21]
(V) Fc1cccc(C2COCCN2c2ccc3ncc(-c4cccc(OC5CCNCC5)n4)n3n2)c1 (stereo not shown) [Table 2-Compound 18]
// query List the 5 entries from lowest BaF3 TRKA-NGF CTG IC 50 to highest BaF3 TRKA-NGF CTG IC 50 value. Returns: the labels arranged in the requested order.
// result II, III, I, V, IV

----------
measured on: Tel-TrkB (Homo sapiens, UniProt Q16620)
Construct: dimerization domain of Tel (ETV6) transcription factor (fusion partner, human ETV6 P41212); expressed in transfected cells; host or cells: luciferase expressing Ba/F3 murine hematopoietic progenitor cells; the other entry of the earlier key: ETV6 (P41212, Transcription factor ETV6)
Sequence (Q16620 538-822 limits assumed): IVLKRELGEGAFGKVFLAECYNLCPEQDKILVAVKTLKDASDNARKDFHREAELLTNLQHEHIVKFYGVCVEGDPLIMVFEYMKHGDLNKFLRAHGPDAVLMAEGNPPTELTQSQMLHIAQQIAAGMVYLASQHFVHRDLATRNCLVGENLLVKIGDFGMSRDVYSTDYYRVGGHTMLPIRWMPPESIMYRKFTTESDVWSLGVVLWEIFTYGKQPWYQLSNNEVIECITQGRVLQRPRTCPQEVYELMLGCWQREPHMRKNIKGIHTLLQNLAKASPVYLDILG
assay summary: Inhibition of proliferation of Ba/F3 cells expressing Tel-TrkB (BaF3/Tel-TrkB)
Assay type: cell-based
test context: Ba/F3 Tel-TrkB cells; read-out: Ba/F3 Tel-TrkB IC 50
pIC50: −log10 of the molar value.
experimental endpoint: pIC50

(1) OC1CCN(c2nccc(-c3cccc(-c4cnc5ccc(N6CCCC6c6cccc(F)c6)nn45)n3)n2)CC1 (stereo not shown)
(2) N#Cc1cccc(-c2cnc3ccc(N4CCC(=O)N4c4cccc(F)c4)nn23)c1
// query // which entry reports the smaller pIC50, 1 or 2 ? Please identify the chosen entry by its label.
// result 2

(A) CCOC(=O)C1CCN(c2cccc(-c3cnc4ccc(N5CCOCC5c5cccc(F)c5)nn34)n2)CC1 (stereo not shown)
(B) Cc1ccc(C)c(C2CCCN2c2ccc3ncc(-c4cccc(C(=O)O)n4)n3n2)c1 (stereo not shown)
// query Hi there! Just curious which has the higher pIC50 between A and B . Please identify the chosen entry by its label.
// result A
(A: 7.36, B: 6.33)

(1) O=C(c1cccc(-c2cnc3ccc(N4CCCC4c4cccc(F)c4)nn23)n1)N1CCC(O)CC1 (stereo not shown)
(2) OC1CCN(c2cncc(-c3cnc4ccc(N5CCCC5c5cccc(F)c5)nn34)n2)CC1 (stereo not shown)
// query Hi there! Just curious which has the higher pIC50 between 1 and 2 . Please identify the chosen entry by its label.
// result 2
(2: 8.52, 1: 7.28)
